B1: Azoarcus group I ribozyme (parent)
chain: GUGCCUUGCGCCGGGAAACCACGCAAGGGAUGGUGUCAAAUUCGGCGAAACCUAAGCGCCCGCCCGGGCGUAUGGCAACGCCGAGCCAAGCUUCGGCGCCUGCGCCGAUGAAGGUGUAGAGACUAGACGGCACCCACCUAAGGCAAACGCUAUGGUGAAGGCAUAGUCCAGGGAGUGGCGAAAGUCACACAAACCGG

variants of: B1; assay: reverse-splicing fitness (ratio to wild type); higher = more active; in vitro selection; Mg2+ level not given
measureName: reverse-splicing fitness

[
  {
    "variantAnnotation": "C82G A111C A145C C150G U176C",
    "reportedValue": 0.0203
  },
  {
    "variantAnnotation": "C82U A111G A120U A145U C150G C169U",
    "reportedValue": 0.00235
  },
  {
    "variantAnnotation": "C82A A111C A120G A145C C169A U176C",
    "reportedValue": 0.00724
  },
  {
    "variantAnnotation": "C82G A111C C150A C169U U176C",
    "reportedValue": 0.0178
  },
  {
    "variantAnnotation": "C82A A145G C150G C169G U176A",
    "reportedValue": 0.0112
  },
  {
    "variantAnnotation": "A111U A120G C150A C169G",
    "reportedValue": 0.0231
  },
  {
    "variantAnnotation": "A120U A145U C150U C169U",
    "reportedValue": 0.197
  },
  {
    "variantAnnotation": "C82U A111C A145U C150U C169U U176A",
    "reportedValue": 0.0154
  },
  {
    "variantAnnotation": "C82A A120U C150U U176C",
    "reportedValue": 0.0352
  },
  {
    "variantAnnotation": "C82A A120U A145U C169G U176A",
    "reportedValue": 0.00173
  },
  {
    "variantAnnotation": "C82G A120U A145U C169A U176A",
    "reportedValue": 0.00245
  },
  {
    "variantAnnotation": "C82U A111U A120U A145G U176C",
    "reportedValue": 0.0112
  },
  {
    "variantAnnotation": "C82G A111C A120C A145C C150U C169U",
    "reportedValue": 0.011
  },
  {
    "variantAnnotation": "A111C A120U A145U C150A C169A U176G",
    "reportedValue": 0.00209
  },
  {
    "variantAnnotation": "C82G A111G A120U A145G C150G C169U U176A",
    "reportedValue": 0.00708
  },
  {
    "variantAnnotation": "C82A A111C A120U C150G C169A U176C",
    "reportedValue": 0.00597
  },
  {
    "variantAnnotation": "C82G A111G A120G C150A",
    "reportedValue": 0.0101
  },
  {
    "variantAnnotation": "C82U A120G A145U U176C",
    "reportedValue": 0.0139
  },
  {
    "variantAnnotation": "C82A A145C C150A C169G",
    "reportedValue": 0.00755
  },
  {
    "variantAnnotation": "A111C A145U C169G U176A",
    "reportedValue": 0.0179
  },
  {
    "variantAnnotation": "A111G A120G A145C C150G C169U",
    "reportedValue": 0.0356
  },
  {
    "variantAnnotation": "C82G A111C A120U C169G",
    "reportedValue": 0.00478
  }
]
